- Tested on: A-549
- ASSAY NAME: Inhibition of cell growth by counting cells, A-549
- Type: cell-based, human
- CONDITIONS USED: Homo sapiens, A549, 72 h, read-out: IC50 (molar) A-549
pIC50: −log10 of the molar value.
I would appreciate it if you labelled entries Condition met when pIC50 is 8 or higher, otherwise Condition not met.

**Query** Evaluate COc1cc2c(cc1OCc1ccccc1)CCN[C@]21CS[C@@H]2c3c(OC(C)=O)c(C)c4c(c3[C@H](COC1=O)N1C2[C@H]2c3c(cc(C)c(OC)c3O)C[C@@H]([C@@H]1C#N)N2C)OCO4 (some centres unmarked) [Compound 43] : pIC50 at minimum 8?
**Result** Condition met

Further cases:
**Query** Evaluate COc1cc2c(cc1OC(=O)OC(C)(C)C)CCN[C@]21CS[C@@H]2c3c(OCc4ccccc4)c(C)c4c(c3[C@H](COC1=O)N1C2[C@H]2c3c(cc(C)c(OC)c3O)C[C@@H]([C@@H]1C#N)N2C)OCO4 (some centres unmarked) [Compound 134] : pIC50 at minimum 8?
**Result** Condition met

**Query** Evaluate COc1cc2c(cc1OC(=O)OC(C)(C)C)CCN[C@]21CS[C@@H]2c3c(OCc4ccccc4)c(C)c4c(c3[C@H](COC1=O)N1C2[C@H]2c3c(cc(C)c(OC)c3OCc3ccccc3)C[C@@H]([C@@H]1C#N)N2C)OCO4 (some centres unmarked) [Compound 135] : pIC50 at minimum 8?
**Result** Condition met

**Query** Evaluate COc1cc2c(cc1OCc1ccccc1)CCN[C@]21CS[C@@H]2c3c(OC(C)=O)c(C)c4c(c3[C@H](COC1=O)N1C2[C@H]2c3c(cc(C)c(OC)c3OCc3ccccc3)C[C@@H]([C@@H]1C#N)N2C)OCO4 (some centres unmarked) [Compound 44] : pIC50 at minimum 8?
**Result** Condition not met

###

- Tested on: P-388
- ASSAY NAME: Inhibition of cell growth by counting cells, P-388
- Type: cell-based, mouse
- CONDITIONS USED: Mus musculus, P388, 72 h; three days of incubation; read-out: IC50 (molar) P-388
- Method: 1°.—Inhibition of Cell Growth by Counting Cells. This form of the assay employs 24 well multidishes of 16 mm diameter (Bergeron, 1984; Schroeder, 1981). […] For quantifying the activity, after the incubation time, cells are trypsinized and counted in a Coulter Counter ZM. […]
pIC50: −log10 of the molar value.
I would appreciate it if you labelled entries True when pIC50 is 9 or higher, otherwise False.

**Query** Evaluate COc1cc2c(cc1OC(=O)OC(C)(C)C)CCN[C@]21CS[C@@H]2c3c(OC(C)=O)c(C)c4c(c3[C@H](COC1=O)N1C2[C@H]2c3c(cc(C)c(OC)c3OC(=O)OC(C)(C)C)C[C@@H]([C@@H]1O)N2C)OCO4 (stereo partly drawn) [Compound 86] : pIC50 at minimum 9?
**Result** True

**Query** Evaluate COc1cc2c(cc1O)CCN[C@]21CS[C@@H]2c3c(OC(C)=O)c(C)c4c(c3[C@H](COC1=O)N1C2[C@@H]2N[C@@H](Cc3cc(C)c(OC)c(O)c32)[C@@H]1C#N)OCO4 (stereo partly drawn) [Compound 186] : pIC50 at minimum 9?
**Result** True

**Query** Evaluate COc1cc2c(cc1OC(=O)OC(C)(C)C)CCN[C@]21CS[C@@H]2c3c(OC(C)=O)c(C)c4c(c3[C@H](COC1=O)N1C2[C@H]2c3c(cc(C)c(OC)c3OC(=O)OC(C)(C)C)C[C@@H]([C@@H]1C#N)N2C)OCO4 (stereo partly drawn) [Compound 5] : pIC50 at minimum 9?
**Result** True

**Query** Evaluate COc1cc2c(cc1OC(=O)OCc1ccccc1)CCN[C@]21CS[C@@H]2c3c(OC(C)=O)c(C)c4c(c3[C@H](COC1=O)N1C2[C@H]2c3c(cc(C)c(OC)c3O)C[C@@H]([C@@H]1C#N)N2C)OCO4 (stereo partly drawn) [Compound 27] : pIC50 at minimum 9?
**Result** True

**Query** Evaluate CCCCCCCCCCCCCCCC(=O)Oc1cc2c(cc1OC)[C@@]1(CS[C@@H]3c4c(OC(C)=O)c(C)c5c(c4[C@H](COC1=O)N1C3[C@@H]3N[C@@H](Cc4cc(C)c(OC)c(OC(=O)CCCCCCCCCCCCCCC)c43)[C@@H]1C#N)OCO5)NCC2 (stereo partly drawn) [Compound 208] : pIC50 at minimum 9?
**Result** False

**Query** Evaluate CCCCCCCCCCCCCCCC(=O)Oc1cc2c(cc1OC)[C@@]1(CS[C@@H]3c4c(OC(C)=O)c(C)c5c(c4[C@H](COC1=O)N1C3[C@H]3c4c(cc(C)c(OC)c4OC(=O)CCCCCCCCCCCCCCC)C[C@@H]([C@@H]1C#N)N3C(=O)OC(C)(C)C)OCO5)NCC2 (stereo partly drawn) [Compound 198] : pIC50 at minimum 9?
**Result** False

###

Reported IC50 by item:
- System: P-388
- ASSAY NAME: Inhibition of cell growth by counting cells, P-388
- Type: cell-based, mouse
- CONDITIONS USED: Mus musculus, P388, 72 h; three days of incubation; read-out: IC50 (molar) P-388
- Procedure: 1°.—Inhibition of Cell Growth by Counting Cells. This form of the assay employs 24 well multidishes of 16 mm diameter (Bergeron, 1984; Schroeder, 1981). […] For quantifying the activity, after the incubation time, cells are trypsinized and counted in a Coulter Counter ZM. […]
The reply should contain only the number, in nM.

Record excerpt, results attached:
**Query** Please give the measured IC50 for this compound: C=CCOC(=O)NC(CSCC1c2ccccc2-c2ccccc21)C(=O)Oc1cc2c(cc1OC)[C@@]1(CS[C@@H]3c4c(OC(C)=O)c(C)c5c(c4[C@H](COC1=O)N1C3[C@H]3c4c(cc(C)c(OC)c4O)C[C@@H]([C@@H]1O)N3C)OCO5)NCC2 (stereo partly shown) [Compound 62]
**Result** 0.888

**Query** Please give the measured IC50 for this compound: CCCCCCCCCCCCCCCC(=O)Oc1cc2c(cc1OC)[C@@]1(CS[C@@H]3c4c(OC(C)=O)c(C)c5c(c4[C@H](COC1=O)N1C3[C@H]3c4c(cc(C)c(OC)c4O)C[C@@H]([C@@H]1C#N)N3C)OCO5)NCC2 (stereo partly shown) [Compound 16]
**Result** 9.91

**Query** Please give the measured IC50 for this compound: CCCC(=O)Oc1cc2c(cc1OC)[C@@]1(CS[C@@H]3c4c(OC(C)=O)c(C)c5c(c4[C@H](COC1=O)N1C3[C@H]3c4c(cc(C)c(OC)c4O)C[C@@H]([C@@H]1C#N)N3C(=O)OC(C)(C)C)OCO5)NCC2 (stereo partly shown) [Compound 192]
**Result** 5.39

Turning now to a further compound:
**Query** Please give the measured IC50 for this compound: COc1cc2c(cc1OC(=O)/C=C/c1ccccc1)CCN[C@]21CS[C@@H]2c3c(OC(C)=O)c(C)c4c(c3[C@H](COC1=O)N1C2[C@H]2c3c(cc(C)c(OC)c3O)C[C@@H]([C@@H]1O)N2C)OCO4 (stereo partly shown) [Compound 61]
**Result** 0.112

###

Reported IC50 by item:
- Tested on: P-388
- ASSAY NAME: Inhibition of cell growth by counting cells, P-388
- Type: cell-based, mouse
- CONDITIONS USED: Mus musculus, P388, 72 h; three days of incubation; read-out: IC50 (molar) P-388
The reply should contain only the number, in nM.

**Query** Please give the measured IC50 for this compound: CCOc1cc2c(cc1OC)[C@@]1(CS[C@@H]3c4c(OC(C)=O)c(C)c5c(c4[C@H](COC1=O)N1C3[C@H]3c4c(cc(C)c(OC)c4OCC)C[C@@H]([C@@H]1C#N)N3C)OCO5)NCC2 (some centres unmarked) [Compound 38]
**Result** 12.1

**Query** Please give the measured IC50 for this compound: COc1cc2c(cc1OC(=O)/C=C/c1ccccc1)CCN[C@]21CS[C@@H]2c3c(OC(C)=O)c(C)c4c(c3[C@H](COC1=O)N1C2[C@H]2c3c(cc(C)c(OC)c3O)C[C@@H]([C@@H]1C#N)N2C)OCO4 (some centres unmarked) [Compound 8]
**Result** 0.111

**Query** Please give the measured IC50 for this compound: CCCCCCCCCCCCCCCC(=O)Oc1c(C)c2c(c3c1[C@H]1SC[C@]4(NCCc5cc(O)c(OC)cc54)C(=O)OC[C@@H]3N3C1[C@H]1c4c(cc(C)c(OC)c4O)C[C@@H]([C@@H]3O)N1C)OCO2 (some centres unmarked) [Compound 170]
**Result** 52.2

**Query** Please give the measured IC50 for this compound: COc1cc2c(cc1OC(=O)/C=C/c1ccccc1)CCN[C@]21CS[C@@H]2c3c(OC(C)=O)c(C)c4c(c3[C@H](COC1=O)N1C2[C@@H]2N[C@@H](Cc3cc(C)c(OC)c(O)c32)[C@@H]1C#N)OCO4 (some centres unmarked) [Compound 204]
**Result** 0.113

**Query** Please give the measured IC50 for this compound: CCCOc1cc2c(cc1OC)[C@@]1(CS[C@@H]3c4c(OC(C)=O)c(C)c5c(c4[C@H](COC1=O)N1C3[C@H]3c4c(cc(C)c(OC)c4O)C[C@@H]([C@@H]1C#N)N3C)OCO5)NCC2 (some centres unmarked) [Compound 39]
**Result** 0.616

Turning now to a further compound:
**Query** Please give the measured IC50 for this compound: COc1cc2c(cc1OC(C)=O)CCN[C@]21CS[C@@H]2c3c(OC(C)=O)c(C)c4c(c3[C@H](COC1=O)N1C2[C@H]2c3c(cc(C)c(OC)c3OC(C)=O)C[C@@H]([C@@H]1O)N2C)OCO4 (some centres unmarked) [Compound 80]
**Result** 2.96

Data origin: patent US7759345B2
